- Test system: HL-60(TB) leukemia
- Experiment Notes: NCI-60 one-dose screen, 48 h (100 = growth as untreated, 0 = no growth, -100 = all killed)
- Condition Context: 10 µM unless noted
The panel holds about 83,000 compounds, 20% with a hit somewhere; the sample as a whole holds those more often.
growth of 20% or higher: t. Under 20%: f.

[[record]]
molecule = "CC(C)(C)OC(=O)N1C=C/C(=C\\Cn2cc(-c3ccccc3)nn2)CC1"
tested_on = "HL-60(TB) leukemia"
class_name = "t"

[[record]]
molecule = "O=C(N/N=C\\c1cc(Br)cc(Br)c1O)N/N=C/c1cc(Br)cc(Br)c1O"
tested_on = "HL-60(TB) leukemia"
class_name = "f"

[[record]]
molecule = "C/C(=N/NC(N)=S)C(=O)O"
tested_on = "HL-60(TB) leukemia"
class_name = "t"

[[record]]
molecule = "c1ccc(-c2nc3sc(C(c4ccccc4)c4ccccc4)nn3c2-c2ccccc2)cc1"
tested_on = "HL-60(TB) leukemia"
class_name = "t"

[[record]]
molecule = "CCOC(=O)NNC(=S)Nc1ccccc1"
tested_on = "HL-60(TB) leukemia"
class_name = "t"

[[record]]
molecule = "COc1ccc(-c2n[nH]c(=O)c3nc(NC(=S)Nc4ccc(Oc5ccccc5)cc4)sc23)cc1"
tested_on = "HL-60(TB) leukemia"
class_name = "t"

[[record]]
molecule = "O=C(c1ccc(Br)cc1)C(Br)C(c1ccc(Cl)cc1)C(c1ccccc1)[N+](=O)[O-] (stereo not given)"
tested_on = "HL-60(TB) leukemia"
class_name = "t"

[[record]]
molecule = "COc1ccc2nc3nc4ccc[nH]c4cc3c2c1"
tested_on = "HL-60(TB) leukemia"
class_name = "t"

[[record]]
molecule = "O=C(O)COc1ccc(OCC(=O)O)cc1"
tested_on = "HL-60(TB) leukemia"
class_name = "f"

[[record]]
molecule = "COC(=O)/C=C1\\S/C(=N\\Nc2ccc([N+](=O)[O-])cc2[N+](=O)[O-])N(C2CCCCC2)C1=O"
tested_on = "HL-60(TB) leukemia"
class_name = "f"

[[record]]
molecule = "CC(=O)[C@H]1CC[C@H]2[C@@H]3CC[C@H]4CC=CC[C@]4(C)[C@H]3CC[C@]12C"
tested_on = "HL-60(TB) leukemia"
class_name = "t"

[[record]]
molecule = "COc1cc(C(=O)N2N=C(c3ccc(S(C)(=O)=O)cc3)CC2c2ccco2)cc(OC)c1OC (stereo not given)"
tested_on = "HL-60(TB) leukemia"
class_name = "t"

[[record]]
molecule = "CCCCCCCCCCCCCCCCCCOc1ccc(CC(=O)OCC[N+](C)(C)C)cc1"
tested_on = "HL-60(TB) leukemia"
class_name = "f"

[[record]]
molecule = "CC1(C)C=CC[C@]2(C)[C@H]3CC[C@@H]4[C@H]5[C@H](C(=O)/C=C/c6cccnc6)CC[C@]5(CO)CC[C@@]4(C)[C@]3(C)CC[C@@H]12"
tested_on = "HL-60(TB) leukemia"
class_name = "f"

[[record]]
molecule = "CCOC(=O)c1c(C)oc2ncnc(Nc3ccc(NC(=O)Nc4cccc(Cl)c4)cc3)c12"
tested_on = "HL-60(TB) leukemia"
class_name = "t"

[[record]]
molecule = "COCCn1cc(-c2csc(-c3c[nH]c4ccccc34)n2)c2cccnc21"
tested_on = "HL-60(TB) leukemia"
class_name = "f"

[[record]]
molecule = "Nc1ccc(Cl)c2c(=O)c3ccccc3[nH]c12"
tested_on = "HL-60(TB) leukemia"
class_name = "t"

[[record]]
molecule = "COc1ccc(C2=NN(C(=O)c3ccc(S(C)(=O)=O)cc3)C(c3ccc(OC)c(OC)c3)C2)c(OC)c1 (stereo not given)"
tested_on = "HL-60(TB) leukemia"
class_name = "t"

[[record]]
molecule = "COc1ccc(C(O)c2cc3c(N)c(C(=O)Nc4cccc5ccccc45)sc3nc2C)cc1 (stereo not given)"
tested_on = "HL-60(TB) leukemia"
class_name = "f"

